Test system: Trichoderma virens ATCC 9645
Assay: growth yield (OD600) with compound + IPBC relative to untreated control; higher = less growth inhibition
Conditions: compound concentration: 100 uM; IPBC concentration: 200 ng/ml; 72 h
Counter-ions that a name gives are not always drawn. Screen size: about 1,300 compounds; about 130 (10%) showed an effect of 50% or more. The list comes from a sample in which strong results are over-represented; it also holds close analogues and randomly drawn compounds.
Please provide measured growth yield for the entries that follow.
# unit: % | format: bare number

Quick one: growth yield for CC(C(=O)O)c1ccc(-c2ccccc2)c(F)c1 (stereo not drawn) [Flurbiprofen] + CCCCNC(=O)OCC#CI [3-iodo-2-propynyl butylcarbamate (IPBC)] ?
76.9

Quick one: growth yield for CC(C(=O)O)c1cccc(Oc2ccccc2)c1 (stereo not drawn) [Fenoprofen calcium salt dihydrate] + CCCCNC(=O)OCC#CI [3-iodo-2-propynyl butylcarbamate (IPBC)] ?
84

Quick one: growth yield for CC(C(=O)O)c1cccc(C(=O)c2ccccc2)c1 (stereo not drawn) [Ketoprofen] + CCCCNC(=O)OCC#CI [3-iodo-2-propynyl butylcarbamate (IPBC)] ?
86.4

----------
System: Trichoderma virens ATCC 9645
Assay: growth yield (OD600) with compound + IPBC relative to untreated control; higher = less growth inhibition
Conditions: compound concentration: 100 uM; IPBC concentration: 200 ng/ml; 40 h
Counter-ions that a name gives are not always drawn. Among all 1,300 compounds or so, about 130 (10%) showed an effect of 50% or more. This excerpt belongs to a sample that is enriched for strong results.
PROPERTY: growth yield (%)
# unit: % | format: bare number

Quick one: growth yield for NS(=O)(=O)c1cc2c(cc1Cl)NC(CC1CCCC1)NS2(=O)=O (stereo not given) [Cyclopenthiazide] + CCCCNC(=O)OCC#CI [3-iodo-2-propynyl butylcarbamate (IPBC)] ?
88.8

Quick one: growth yield for C/C=C(/C(=C/C)c1ccc(O)cc1)c1ccc(O)cc1 [Dienestrol] + CCCCNC(=O)OCC#CI [3-iodo-2-propynyl butylcarbamate (IPBC)] ?
94.8

Quick one: growth yield for C[C@]12C/C(=C/O)C(=O)C[C@@H]1CC[C@@H]1[C@@H]2CC[C@@]2(C)[C@H]1CC[C@]2(C)O [Oxymetholone] + CCCCNC(=O)OCC#CI [3-iodo-2-propynyl butylcarbamate (IPBC)] ?
112

Quick one: growth yield for CCNCC(O)c1cccc(O)c1 (stereo not given) [Etilefrine hydrochloride] + CCCCNC(=O)OCC#CI [3-iodo-2-propynyl butylcarbamate (IPBC)] ?
96.9

Quick one: growth yield for O=C1c2ccccc2S(=O)(=O)N1CCCCN1CCN(c2ncccn2)CC1 [Ipsapirone] + CCCCNC(=O)OCC#CI [3-iodo-2-propynyl butylcarbamate (IPBC)] ?
87.4

----------
Tested on: Trichoderma virens ATCC 9645
Test: growth yield (OD600) with compound + IPBC relative to untreated control; higher = less growth inhibition
Conditions: compound concentration: 100 uM; IPBC concentration: 200 ng/ml; 40 h
Where a name gives a salt, the structure may show the parent alone. The whole screen tested about 1,300 compounds, of which about 130 (10%) showed an effect of 50% or more. This is one part of a sample in which strong results are shown more often than they occur.
Record yes (1) whenever growth yield is at 80% or higher; record no (0) when lower.

Can Cc1cc(NS(=O)(=O)c2ccc(N)cc2)no1 [Sulfamethoxazole] + CCCCNC(=O)OCC#CI [3-iodo-2-propynyl butylcarbamate (IPBC)] be said to have growth yield at or above 80%?
no (0)

Can O=P(O)(O)C(O)(Cc1cccnc1)P(=O)(O)O [Risedronic acid monohydrate] + CCCCNC(=O)OCC#CI [3-iodo-2-propynyl butylcarbamate (IPBC)] be said to have growth yield at or above 80%?
yes (1)

Can CCC1(c2cccc(O)c2)CCCCN(C)C1 (stereo not given) [Meptazinol hydrochloride] + CCCCNC(=O)OCC#CI [3-iodo-2-propynyl butylcarbamate (IPBC)] be said to have growth yield at or above 80%?
yes (1)

Can COc1ccnc(C[S+]([O-])c2nc3cc(OC(F)F)ccc3[nH]2)c1OC (stereo not given) [Pantoprazole sodium] + CCCCNC(=O)OCC#CI [3-iodo-2-propynyl butylcarbamate (IPBC)] be said to have growth yield at or above 80%?
no (0)

Can CC(=O)NS(=O)(=O)c1ccc(N)cc1 [Sulfacetamide sodic hydrate] + CCCCNC(=O)OCC#CI [3-iodo-2-propynyl butylcarbamate (IPBC)] be said to have growth yield at or above 80%?
yes (1)

Can NC[C@@H]1O[C@@H](O[C@H]2[C@H](O)[C@@H](O[C@H]3O[C@H](CO)[C@@H](O)[C@H](N)[C@H]3O)[C@H](N)C[C@@H]2N)[C@@H](O)[C@H](O)[C@H]1O [Kanamycin A sulfate] + CCCCNC(=O)OCC#CI [3-iodo-2-propynyl butylcarbamate (IPBC)] be said to have growth yield at or above 80%?
yes (1)

Can CC(CN(C)C)CN1c2ccccc2Sc2ccccc21 (stereo not given) [Trimeprazine tartrate] + CCCCNC(=O)OCC#CI [3-iodo-2-propynyl butylcarbamate (IPBC)] be said to have growth yield at or above 80%?
no (0)

Can CCCCNc1ccc(C(=O)OCCOCCOCCOCCOCCOCCOCCOCCOCCOC)cc1 [Benzonatate] + CCCCNC(=O)OCC#CI [3-iodo-2-propynyl butylcarbamate (IPBC)] be said to have growth yield at or above 80%?
no (0)

Can Cc1ccc(/C(=C\CN2CCCC2)c2ccccn2)cc1 [Triprolidine hydrochloride] + CCCCNC(=O)OCC#CI [3-iodo-2-propynyl butylcarbamate (IPBC)] be said to have growth yield at or above 80%?
yes (1)

Can CNS(=O)(=O)Cc1ccc2[nH]cc(CCN(C)C)c2c1 [Sumatriptan succinate] + CCCCNC(=O)OCC#CI [3-iodo-2-propynyl butylcarbamate (IPBC)] be said to have growth yield at or above 80%?
yes (1)

Can CC(C)(C)NC[C@@H](O)COc1cccc2c1CCCC2=O [(+) -Levobunolol hydrochloride] + CCCCNC(=O)OCC#CI [3-iodo-2-propynyl butylcarbamate (IPBC)] be said to have growth yield at or above 80%?
yes (1)

Can Fc1ccc([C@@H]2CCNC[C@H]2COc2ccc3c(c2)OCO3)cc1 [Paroxetine Hydrochloride] + CCCCNC(=O)OCC#CI [3-iodo-2-propynyl butylcarbamate (IPBC)] be said to have growth yield at or above 80%?
no (0)

Can c1ccc(C2CN3CCSC3=N2)cc1 (stereo not given) [Tetramisole hydrochloride] + CCCCNC(=O)OCC#CI [3-iodo-2-propynyl butylcarbamate (IPBC)] be said to have growth yield at or above 80%?
yes (1)

Can COc1cc([S+](C)[O-])ccc1-c1nc2cccnc2[nH]1 (stereo not given) [Sulmazole] + CCCCNC(=O)OCC#CI [3-iodo-2-propynyl butylcarbamate (IPBC)] be said to have growth yield at or above 80%?
yes (1)

Can C#CCN[C@@H]1CCc2ccccc21 [Rasagiline] + CCCCNC(=O)OCC#CI [3-iodo-2-propynyl butylcarbamate (IPBC)] be said to have growth yield at or above 80%?
yes (1)

Can COc1cc(C)nc(-n2nc(C)cc2OC)n1 [Epirizole] + CCCCNC(=O)OCC#CI [3-iodo-2-propynyl butylcarbamate (IPBC)] be said to have growth yield at or above 80%?
yes (1)

Can CO[C@@H]1[C@@H](O[C@@H]2O[C@H](C)[C@@H](O[C@H]3C[C@@](C)(O)[C@@H](OC(=O)CC(C)C)[C@H](C)O3)[C@H](N(C)C)[C@H]2O)[C@@H](CC=O)C[C@@H](C)[C@@H](O)/C=C/C=C/C[C@@H](C)OC(=O)C[C@H]1OC(C)=O [Josamycin] + CCCCNC(=O)OCC#CI [3-iodo-2-propynyl butylcarbamate (IPBC)] be said to have growth yield at or above 80%?
yes (1)

Can O=[N+]([O-])O[C@H]1CO[C@H]2[C@@H]1OC[C@H]2O[N+](=O)[O-] [Isosorbide dinitrate] + CCCCNC(=O)OCC#CI [3-iodo-2-propynyl butylcarbamate (IPBC)] be said to have growth yield at or above 80%?
yes (1)

----------
Tested on: Trichoderma virens ATCC 9645
Experiment: growth yield (OD600) with compound + IPBC relative to untreated control; higher = less growth inhibition
Conditions: compound concentration: 100 uM; IPBC concentration: 200 ng/ml; 72 h
Structures can show the parent of a compound that is named as a salt. In all, about 1,300 compounds went through this assay and about 130 (10%) showed an effect of 50% or more. The sample holds strong results, similar compounds and a random draw of the others, so the mix is not that of the screen.
Please provide measured growth yield for the entries that follow.
# unit: % | format: bare number

Quick one: growth yield for CNS(=O)(=O)Cc1ccc2[nH]cc(CCN(C)C)c2c1 [Sumatriptan succinate] + CCCCNC(=O)OCC#CI [3-iodo-2-propynyl butylcarbamate (IPBC)] ?
91.3

Quick one: growth yield for CNCCc1ccccn1 [Betahistine mesylate] + CCCCNC(=O)OCC#CI [3-iodo-2-propynyl butylcarbamate (IPBC)] ?
92

Quick one: growth yield for C#CCN[C@@H]1CCc2ccccc21 [Rasagiline] + CCCCNC(=O)OCC#CI [3-iodo-2-propynyl butylcarbamate (IPBC)] ?
85.6

Quick one: growth yield for CCc1c(C)[nH]c2c1C(=O)C(CN1CCOCC1)CC2 (stereo unspecified) [Molindone hydrochloride] + CCCCNC(=O)OCC#CI [3-iodo-2-propynyl butylcarbamate (IPBC)] ?
101

Quick one: growth yield for CC12CC3CC(C)(C1)CC(N)(C3)C2 [Memantine Hydrochloride] + CCCCNC(=O)OCC#CI [3-iodo-2-propynyl butylcarbamate (IPBC)] ?
108

Quick one: growth yield for Cc1cccc(C)c1NC(=O)CN1CCN(CCCC(c2ccc(F)cc2)c2ccc(F)cc2)CC1 [Lidoflazine] + CCCCNC(=O)OCC#CI [3-iodo-2-propynyl butylcarbamate (IPBC)] ?
78.6

Quick one: growth yield for O=C(Cn1ccnc1[N+](=O)[O-])NCCO [Etanidazole] + CCCCNC(=O)OCC#CI [3-iodo-2-propynyl butylcarbamate (IPBC)] ?
92.2

Quick one: growth yield for COc1ccnc(C[S+]([O-])c2nc3cc(OC(F)F)ccc3[nH]2)c1OC (stereo unspecified) [Pantoprazole sodium] + CCCCNC(=O)OCC#CI [3-iodo-2-propynyl butylcarbamate (IPBC)] ?
98.9

Quick one: growth yield for COc1ccccc1OCC(O)CN1CCN(CC(=O)Nc2c(C)cccc2C)CC1 (stereo unspecified) [Ranolazine] + CCCCNC(=O)OCC#CI [3-iodo-2-propynyl butylcarbamate (IPBC)] ?
94.2

Quick one: growth yield for O=C(c1ccc(F)cc1)C1CCN(CCn2c(=O)[nH]c3ccccc3c2=O)CC1 [Ketanserin tartrate hydrate] + CCCCNC(=O)OCC#CI [3-iodo-2-propynyl butylcarbamate (IPBC)] ?
101

Quick one: growth yield for CCN(C(C)=O)c1cccc(-c2ccnc3c(C#N)cnn23)c1 [Zaleplon] + CCCCNC(=O)OCC#CI [3-iodo-2-propynyl butylcarbamate (IPBC)] ?
88.9
